Origin of the recorded values: patent US20240174690A1

protocol-summary: Caco-2 assay (permeability PappAB, PappBA, efflux ratio)
Format: in vitro ADME
condition-info: human, Caco-2; efflux ratio PappBA/PappAB; 10 μM test compound, pH 7.4; read-out: Caco ER
Experimental: The assay provides information on the potential of a compound to pass the cell membrane, on the extent of oral absorption as well as on whether the compound is actively transported by uptake and/or efflux transporters. […] Concentrations of test compounds in samples were measured by HPLC/MS/MS, samples from the donor compartment were diluted 1:50 (v:v) with assay buffer, samples from receiver compartment were measured without dilution. […]
# cutoff 10 applies to efflux ratio at 90 min, 10 μM; >= gives TRUE, < gives FALSE

compound | class-name
CC(C)NC(=O)Cc1ccn(-c2cc(O[C@@H](C)[C@@H]3CCCN3C)nc(-c3noc4c3CCC[C@@]43CCCc4sc(N)c(C#N)c43)n2)n1 [II-182] | FALSE

In: Could you tell me if the measured efflux ratio at 90 min, 10 μM of C[C@H](Oc1cc(-c2ccn(CC(C)(C)O)n2)nc(-c2onc3c2CCC[C@@]32CCCc3sc(N)c(C#N)c32)n1)[C@@H]1CCCN1C [I-26] reaches 10 or more?
Out: TRUE

In: Could you tell me if the measured efflux ratio at 90 min, 10 μM of C[C@H](Oc1cc(-n2ccnc2)nc(-c2noc3c2CCC[C@@]32CCCc3sc(N)c(C#N)c32)n1)[C@@H]1C[C@@H](F)CN1C [II-120] reaches 10 or more?
Out: FALSE

In: Could you tell me if the measured efflux ratio at 90 min, 10 μM of CO[C@H]1CCN(C)[C@@H]1[C@H](C)Oc1cc(N2CCNC3(CC3)C2)nc(-c2noc3c2CCC[C@@]32CCCc3sc(N)c(C#N)c32)n1 [II-184] reaches 10 or more?
Out: FALSE

In: Could you tell me if the measured efflux ratio at 90 min, 10 μM of C[C@H](Oc1cc(N2C[C@@H]3[C@@H](N)[C@@H]3C2)nc(-c2noc3c2CCC[C@@]32CCCc3sc(N)c(C#N)c32)n1)[C@@H]1CCCN1C [II-167] reaches 10 or more?
Out: TRUE

In: Could you tell me if the measured efflux ratio at 90 min, 10 μM of C[C@H](Oc1nc(-c2noc3c2CCC[C@@]32CCCc3sc(N)c(C#N)c32)nc(N2CCNC3(CC3)C2)c1F)[C@@H]1C[C@@H](F)CN1C [II-155] reaches 10 or more?
Out: FALSE

In: Could you tell me if the measured efflux ratio at 90 min, 10 μM of C[C@@H]1CN(c2nc(-c3noc4c3CCC[C@@]43CCCc4sc(N)c(C#N)c43)nc(O[C@@H](C)[C@@H]3C[C@@H](F)CN3C)c2F)CC2(CC2)N1 [II-158] reaches 10 or more?
Out: FALSE

In: Could you tell me if the measured efflux ratio at 90 min, 10 μM of C[C@H](Oc1cc(N2CCN(C)C2=O)nc(-c2noc3c2CCC[C@@]32CCCc3sc(N)c(C#N)c32)n1)[C@@H]1CCCN1C [II-75] reaches 10 or more?
Out: FALSE

In: Could you tell me if the measured efflux ratio at 90 min, 10 μM of C[C@H](Oc1cc(-n2ccc(-c3cn([C@@H]4CCOC4)nn3)n2)nc(-c2noc3c2CCC[C@@]32CCCc3sc(N)c(C#N)c32)n1)[C@@H]1CCCN1C [II-211] reaches 10 or more?
Out: FALSE

In: Could you tell me if the measured efflux ratio at 90 min, 10 μM of C[C@H](Oc1cc(N2CCNC3(CC3)C2)nc(-c2noc3c2CCC[C@@]32CCCc3sc(N)c(C#N)c32)n1)[C@@H]1C[C@@H](F)CN1C [II-165] reaches 10 or more?
Out: FALSE

In: Could you tell me if the measured efflux ratio at 90 min, 10 μM of C[C@H](Oc1cc(C2COCCO2)nc(-c2noc3c2CCC[C@@]32CCCc3sc(N)c(C#N)c32)n1)[C@@H]1CCCN1C (stereo partly drawn) [II-95] reaches 10 or more?
Out: FALSE

In: Could you tell me if the measured efflux ratio at 90 min, 10 μM of C[C@H](Oc1nc(-c2noc3c2CCC[C@@]32CCCc3sc(N)c(C#N)c32)cc(N2C[C@H](C)N[C@@H](C)C2)n1)[C@@H]1CCCN1C [II-46] reaches 10 or more?
Out: TRUE

In: Could you tell me if the measured efflux ratio at 90 min, 10 μM of C[C@H](Oc1nc(-c2noc3c2CCC[C@@]32CCCc3sc(N)c(C#N)c32)nc(N2C[C@H](C)NC3(CC3)C2)c1F)[C@@H]1C[C@@H](F)CN1C [II-157] reaches 10 or more?
Out: FALSE

In: Could you tell me if the measured efflux ratio at 90 min, 10 μM of C[C@H](Oc1cc(-n2ccc(C(=O)NC3COC3)n2)nc(-c2noc3c2CCC[C@@]32CCCc3sc(N)c(C#N)c32)n1)[C@@H]1CCCN1C [II-25] reaches 10 or more?
Out: TRUE

In: Could you tell me if the measured efflux ratio at 90 min, 10 μM of C[C@H](Oc1cc(N2CCN(C)C3(COC3)C2)nc(-c2onc3c2CCC[C@@]32CCCc3sc(N)c(C#N)c32)n1)[C@@H]1C[C@@H](F)CN1C [I-37] reaches 10 or more?
Out: FALSE

In: Could you tell me if the measured efflux ratio at 90 min, 10 μM of C[C@H](Oc1cc(-n2ccc(-c3cn([C@H]4CCOC4)nn3)n2)nc(-c2noc3c2CCC[C@@]32CCCc3sc(N)c(C#N)c32)n1)[C@@H]1CCCN1C [II-212] reaches 10 or more?
Out: FALSE

In: Could you tell me if the measured efflux ratio at 90 min, 10 μM of [2H]C([2H])([2H])N1C[C@H](F)C[C@H]1[C@H](C)Oc1cc(N2CCN(C)C3(CC3)C2)nc(-c2noc3c2CCC[C@@]32CCCc3sc(N)c(C#N)c32)n1 [II-209] reaches 10 or more?
Out: FALSE

In: Could you tell me if the measured efflux ratio at 90 min, 10 μM of C[C@H](Oc1cc(-n2cc3c(n2)CCN(C)C3)nc(-c2noc3c2CCC[C@@]32CCCc3sc(N)c(C#N)c32)n1)[C@@H]1CCCN1C [II-141] reaches 10 or more?
Out: FALSE

In: Could you tell me if the measured efflux ratio at 90 min, 10 μM of C[C@H](Oc1cc(-n2cncn2)nc(-c2noc3c2CCC[C@@]32CCCc3sc(N)c(C#N)c32)n1)[C@@H]1CCCN1C [II-70] reaches 10 or more?
Out: FALSE

In: Could you tell me if the measured efflux ratio at 90 min, 10 μM of C[C@H](Oc1cc(-c2ccn(C[C@@H](C)O)n2)nc(-c2noc3c2CCC[C@@]32CCCc3sc(N)c(C#N)c32)n1)[C@@H]1CCCN1C [II-117] reaches 10 or more?
Out: TRUE

In: Could you tell me if the measured efflux ratio at 90 min, 10 μM of C[C@H](Oc1cc(N2CCNC3(CCC3)C2)nc(-c2noc3c2CCC[C@@]32CCCc3sc(N)c(C#N)c32)n1)[C@@H]1CCCN1C [II-40] reaches 10 or more?
Out: TRUE
